# Tested on: AncSZ
# methodNotes: phosphorylation enrichment, bacterial display (enrichment ratio); higher = better substrate or ligand; peptides without Tyr show the background
assayMetric: phosphorylation enrichment
Form rule: numeric answer, no unit written next to it.

{"residues": "KRISCYEARFQ [PFKFB3_Y194_S197R_YF]", "testedTarget": "AncSZ", "phosphorylation enrichment": 0.669}
{"residues": "EERKTYVNTTL [TEK_Y1102]", "testedTarget": "AncSZ", "phosphorylation enrichment": 0.83}
{"residues": "QFFQGYFNNNF [ZNF236_Y644_S643G]", "testedTarget": "AncSZ", "phosphorylation enrichment": 1.15}

### Prompt Data request, read-out phosphorylation enrichment, for HAVEDYQAIVD [CCT7_Y263_T259A]
### Response 1.54

### Prompt How about this sequence: DVFVSYDFGKS [SORL1_Y139_YF]
### Response 0.939

### Prompt Field entry: ADVLDYIKALN [HPRT1_Y81_L78V]
### Response 0.756

### Prompt And for EDKSIYRRGAR [PRKCI_Y125] ?
### Response 0.674

---

Here, each record is paired with measured phosphorylation enrichment data.
# System: c-Abl (mouse)
# methodNotes: phosphorylation enrichment, bacterial display (enrichment ratio); higher = better substrate or ligand; peptides without Tyr show the background
Provide a numeric answer; units are not to be included.

Answered cases to consult:
{"residues": "CNLDTYQKRLR [PLA2G2D_Y126_R121C]", "testedTarget": "c-Abl (mouse)", "phosphorylation enrichment": 0.592}
{"residues": "QRIFQYIQSRF [DYRK1B_Y273_YF]", "testedTarget": "c-Abl (mouse)", "phosphorylation enrichment": 0.583}
{"residues": "RPGGRYPVARR [SHANK3_Y1569_S1566G]", "testedTarget": "c-Abl (mouse)", "phosphorylation enrichment": 0.657}

### Prompt Entry under review: AGQEEYSAMRD [HRAS_Y64] . Reported phosphorylation enrichment?
### Response 0.678

---

# testedTarget: MERTK (UniProt Q12866)
# Sequence (Q12866 whole entry, looked up): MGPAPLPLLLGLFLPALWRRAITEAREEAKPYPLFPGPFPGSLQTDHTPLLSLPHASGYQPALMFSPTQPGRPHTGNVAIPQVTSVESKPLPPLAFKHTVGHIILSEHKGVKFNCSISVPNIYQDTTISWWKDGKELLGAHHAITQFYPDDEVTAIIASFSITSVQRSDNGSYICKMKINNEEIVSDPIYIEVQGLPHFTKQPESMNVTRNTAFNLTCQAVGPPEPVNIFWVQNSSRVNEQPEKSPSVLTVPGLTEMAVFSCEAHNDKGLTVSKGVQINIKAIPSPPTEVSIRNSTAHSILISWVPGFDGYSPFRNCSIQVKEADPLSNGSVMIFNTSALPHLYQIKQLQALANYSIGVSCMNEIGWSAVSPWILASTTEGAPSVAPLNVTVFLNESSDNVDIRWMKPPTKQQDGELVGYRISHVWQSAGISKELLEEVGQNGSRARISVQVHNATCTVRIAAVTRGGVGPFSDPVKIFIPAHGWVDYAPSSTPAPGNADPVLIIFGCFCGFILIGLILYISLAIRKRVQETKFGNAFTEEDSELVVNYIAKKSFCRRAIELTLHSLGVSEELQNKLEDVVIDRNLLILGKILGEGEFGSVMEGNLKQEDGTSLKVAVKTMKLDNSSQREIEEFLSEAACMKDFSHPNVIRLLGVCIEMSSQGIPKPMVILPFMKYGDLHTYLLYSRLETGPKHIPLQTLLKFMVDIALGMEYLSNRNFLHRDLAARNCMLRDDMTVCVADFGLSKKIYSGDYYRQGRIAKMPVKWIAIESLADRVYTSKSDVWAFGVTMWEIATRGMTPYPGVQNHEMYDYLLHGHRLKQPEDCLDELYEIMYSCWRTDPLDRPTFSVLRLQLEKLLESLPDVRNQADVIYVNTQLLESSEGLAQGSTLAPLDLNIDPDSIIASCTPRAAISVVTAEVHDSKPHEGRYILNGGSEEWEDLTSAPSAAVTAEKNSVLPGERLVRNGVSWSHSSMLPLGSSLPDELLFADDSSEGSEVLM
# methodNotes: phosphorylation enrichment, bacterial display (enrichment ratio); higher = better substrate or ligand; peptides without Tyr show the background
assayMetric: phosphorylation enrichment
Would you mind answering with just the numeric figure?

# annotated cases, reported phosphorylation enrichment shown
{"residues": "RMLREYQELMS [KRT74_Y425]", "testedTarget": "MERTK (UniProt Q12866)", "phosphorylation enrichment": 0.527}
{"residues": "SWSTSYSGYRC [NKAPL_Y91_Y96C]", "testedTarget": "MERTK (UniProt Q12866)", "phosphorylation enrichment": 0.443}
{"residues": "TIWDSYTTNKV [GNB1_Y85_I80T]", "testedTarget": "MERTK (UniProt Q12866)", "phosphorylation enrichment": 0.463}
{"residues": "GESKDYALHVG [SVIL_Y185]", "testedTarget": "MERTK (UniProt Q12866)", "phosphorylation enrichment": 0.468}
{"residues": "ENELTYFCFKK [CD59_Y86_C89Y_YF]", "testedTarget": "MERTK (UniProt Q12866)", "phosphorylation enrichment": 1.16}

### Prompt So what phosphorylation enrichment did KWHREYNSKYV [RICTOR_Y835] get with MERTK (UniProt Q12866)?
### Response 0.339

### Prompt Also EAVLHYKHQNQ [MTOR_Y1804] , if possible.
### Response 0.363

### Prompt Continue with GKFHMYVAVWT [F13A1_Y161_R159H]
### Response 0.351

### Prompt What do you have for VGGRIYTDDGL [PKLR_Y218_I219T] ?
### Response 0.37

### Prompt How about LVMFTYAIFGM [SCN1A_Y1684_I1683T] ?
### Response 0.937

### Prompt Moving on to KLFYIYTSGTT [SLC27A4_Y245]
### Response 0.5

### Prompt Moving on to the next sequence: QMQNPYSSHSS [MUC13_Y501_R503S]
### Response 0.432

### Prompt Now give it for HEKRAYICAHP [ACAD9_Y611_L606H] too.
### Response 0.439

### Prompt Here is the next sequence: WDLSEYSYKDP [ITGA3_Y237]
### Response 0.416

---

# System: AncSZ
# methodNotes: phosphorylation enrichment, bacterial display (enrichment ratio); higher = better substrate or ligand; peptides without Tyr show the background
assayMetric: phosphorylation enrichment
No unit in the answer, only the number.

Please review the following examples before continuing.
{"residues": "CTTVHYNYMCN [TP53_Y234_I232V]", "phosphorylation enrichment": 0.816}
{"residues": "NTPNTYLRVNV [ADD2_Y440]", "phosphorylation enrichment": 0.891}
{"residues": "MSPPGYKLVNG [GJA1_Y286_T290N]", "phosphorylation enrichment": 0.429}
{"residues": "ALVDTYCRHNF [HLA-DRB1_Y107_A103L_YF]", "phosphorylation enrichment": 0.782}
{"residues": "RRYLYYYSYLL [PTEN_Y177_V175L]", "phosphorylation enrichment": 1.13}

Now consider the entry below.
### Prompt Please look up its phosphorylation enrichment: LFLASYCIGGG [UBD_Y161_C160S]
### Response 1.22

---

# Tested on: Fer (mouse)
# methodNotes: phosphorylation enrichment, bacterial display (enrichment ratio); higher = better substrate or ligand; peptides without Tyr show the background
Rule: phosphorylation enrichment of 0.5 or more gives Condition met; anything lower gives Condition not met.

Answered cases to consult:
{"residues": "MSLDQYSPSFP [FGFR1_Y776_P772S]", "assignedCategory": "Condition not met"}
{"residues": "DLTQDSEEWKR [ORC6_Y232_Y232S]", "assignedCategory": "Condition not met"}
{"residues": "CTTIHYNYMRN [TP53_Y234_C238R]", "assignedCategory": "Condition met"}
{"residues": "GESKDYALHVG [SVIL_Y185]", "assignedCategory": "Condition not met"}
{"residues": "SVTCPYSPALN [TP53_Y126_T125P]", "assignedCategory": "Condition met"}

### Prompt Would you say ATHRSYDSDNP [MMUT_Y146_G145S] shows phosphorylation enrichment at minimum 0.5?
### Response Condition not met

### Prompt Next record, please: RRETPYGGGGG [FUS_Y526_R524T]
### Response Condition not met

### Prompt Try the sequence EFGEVYKGMLK [EPHA2_Y628]
### Response Condition not met

### Prompt Repeat for the following sequence: LTSKPYAFTAR [NDUFS1_Y236]
### Response Condition met

### Prompt Can you handle MFNPYYGLFEY [NEDD4L_Y680] next?
### Response Condition met

### Prompt Would you kindly repeat that for EERKTYVNTTL [TEK_Y1102] ?
### Response Condition met

### Prompt Same lookup for DLDFTYIFPNI [PTEN_Y27_L25F_YF] , please.
### Response Condition met

### Prompt Would you kindly repeat that for QKMADYSNKLF [PDPR_Y104_YF] ?
### Response Condition not met

---

# testedTarget: Grb2 SH2 (UniProt P62993)
# Sequence (P62993 whole entry, looked up): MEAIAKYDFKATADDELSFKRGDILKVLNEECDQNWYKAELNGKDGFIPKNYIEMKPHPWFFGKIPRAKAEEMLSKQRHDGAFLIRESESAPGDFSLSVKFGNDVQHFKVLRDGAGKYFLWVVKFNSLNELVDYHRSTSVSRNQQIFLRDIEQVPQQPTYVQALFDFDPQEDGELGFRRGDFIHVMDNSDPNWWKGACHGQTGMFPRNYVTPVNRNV
# methodNotes: SH2 binding enrichment of the phosphorylated peptide, bacterial display (enrichment ratio); higher = better substrate or ligand; peptides without Tyr show the background
Use 0.9 as the dividing line for SH2 binding enrichment, with the line itself on the yes (1) side and lower values as no (0).

Please review the entries below; each comes with its answer.
{"residues": "FSMGCYEISLG [HMGCL_Y198_YF]", "assignedCategory": "no (0)"}
{"residues": "PSSNLYFRCLT [CNGA3_Y168_W171C_YF]", "assignedCategory": "no (0)"}
{"residues": "NTPNTYLRVNV [ADD2_Y440]", "assignedCategory": "yes (1)"}
{"residues": "VQDPAYLRDIN [OPRK1_Y369_D374N]", "assignedCategory": "no (0)"}
{"residues": "CHSDDYVHISL [TSC1_Y406]", "assignedCategory": "no (0)"}
{"residues": "NGTVSYAIVAG [CDH23_Y1672_T1671S]", "assignedCategory": "no (0)"}

### Prompt SH2 binding enrichment >= 0.9 for FRKNIYNVKST [SYNE2_Y575_YF] ?
### Response yes (1)

### Prompt Here is the next sequence: KEINDYVEKGT [SERPINA1_Y184_Q180E]
### Response yes (1)

### Prompt # repeat for NTTIHYNFMCN [TP53_Y234_C229N_YF]
### Response no (0)

### Prompt Please answer likewise for PLDGEYVTLQI [TP53_Y327_F328V]
### Response no (0)

### Prompt Query NHQFDYTFHWT [CSNK1A1_Y294_D297H_YF] next
### Response yes (1)

---

# testedTarget: EPHB1 (UniProt P54762)
# Sequence (P54762 whole entry, looked up): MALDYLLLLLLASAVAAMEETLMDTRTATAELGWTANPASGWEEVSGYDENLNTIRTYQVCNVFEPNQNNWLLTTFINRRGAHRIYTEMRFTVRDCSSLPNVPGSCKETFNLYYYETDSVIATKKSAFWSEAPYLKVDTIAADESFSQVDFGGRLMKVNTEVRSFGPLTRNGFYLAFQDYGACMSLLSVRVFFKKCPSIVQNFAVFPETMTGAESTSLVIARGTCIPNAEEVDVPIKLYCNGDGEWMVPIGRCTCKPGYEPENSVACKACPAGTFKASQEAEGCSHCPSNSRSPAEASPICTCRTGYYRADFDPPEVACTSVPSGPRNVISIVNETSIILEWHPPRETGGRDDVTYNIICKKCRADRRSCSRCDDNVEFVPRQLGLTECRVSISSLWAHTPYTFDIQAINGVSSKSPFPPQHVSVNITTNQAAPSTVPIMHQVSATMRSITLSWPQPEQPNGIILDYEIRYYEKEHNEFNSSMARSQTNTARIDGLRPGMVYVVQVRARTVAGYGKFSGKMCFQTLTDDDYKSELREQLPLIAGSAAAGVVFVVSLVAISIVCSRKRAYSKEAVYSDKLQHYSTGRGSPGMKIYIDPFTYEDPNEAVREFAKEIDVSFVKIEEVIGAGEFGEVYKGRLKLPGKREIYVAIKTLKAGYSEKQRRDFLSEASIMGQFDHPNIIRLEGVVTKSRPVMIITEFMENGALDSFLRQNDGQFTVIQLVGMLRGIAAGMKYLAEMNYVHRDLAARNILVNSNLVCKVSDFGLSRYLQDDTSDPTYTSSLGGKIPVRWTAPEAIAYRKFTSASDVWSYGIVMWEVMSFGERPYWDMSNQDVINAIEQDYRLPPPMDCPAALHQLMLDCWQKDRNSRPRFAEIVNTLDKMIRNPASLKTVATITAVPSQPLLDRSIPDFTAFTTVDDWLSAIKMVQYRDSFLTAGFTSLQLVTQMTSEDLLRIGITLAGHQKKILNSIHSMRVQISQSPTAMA
# methodNotes: phosphorylation enrichment, bacterial display (enrichment ratio); higher = better substrate or ligand; peptides without Tyr show the background
assayMetric: phosphorylation enrichment
Answer with a number only.

Below: 5 sequences and their reported phosphorylation enrichment.
{"residues": "TYGVVYKARNK [CDK2_Y19]", "testedTarget": "EPHB1 (UniProt P54762)", "observedMeasurement": 0.369}
{"residues": "SKDQICPMKLK [RANBP17_Y823_Y823C]", "testedTarget": "EPHB1 (UniProt P54762)", "observedMeasurement": 0.385}
{"residues": "RIRRRYCQVLN [IQCF1_Y144]", "testedTarget": "EPHB1 (UniProt P54762)", "observedMeasurement": 0.784}
{"residues": "ADGLEYPRTGL [MMUT_Y287_S288P]", "testedTarget": "EPHB1 (UniProt P54762)", "observedMeasurement": 0.425}
{"residues": "PQGVRYIFTID [DCX_Y103_YF]", "testedTarget": "EPHB1 (UniProt P54762)", "observedMeasurement": 0.587}

### Prompt Which value of phosphorylation enrichment has been reported for LHRAHYDLRHT [AHSG_Y314] in the records?
### Response 0.668

### Prompt Please give the result for PPTFRYERGSR [INPPL1_Y663_YF] too.
### Response 0.503
